test system: MDA-MB-231 human breast cancer cells; assay: Wound-healing assay (cell migration); format: cell-based; settings: Homo sapiens; MDA-MB-231, wound-healing assay, dose response; read-out: IC50 antimigratory activity
Recorded measurements of IC50, one per entry
Hi, when you answer, please include the unit after the number. Thanks!

Solved entries (count: 5):
Compound Smiles: CC(C)=CCC/C(C)=C/CC/C(C)=C/CC[C@]1(C)CCc2c3c(cc(C)c2O1)OCN(CCCCCCO)C3
Measure Name: IC50
Endpoint Value: 1.5 µM
//
Compound Smiles: CC(C)=CCC/C(C)=C/CC/C(C)=C/CC[C@]1(C)CCc2c3c(cc(C)c2O1)OCN(CCO)C3
Measure Name: IC50
Endpoint Value: 1.3 µM
//
Compound Smiles: CC(C)=CCC/C(C)=C/CC/C(C)=C/CC[C@]1(C)CCc2c3c(cc(C)c2O1)OCN(CCCCCCCCCCO)C3
Measure Name: IC50
Endpoint Value: 7.2 µM
//
Compound Smiles: CC(C)=CCC/C(C)=C/CC/C(C)=C/CC[C@]1(C)CCc2c3c(cc(C)c2O1)OCN(CCCCCCCCO)C3
Measure Name: IC50
Endpoint Value: 4.9 µM
//
Compound Smiles: CC(C)=CCC/C(C)=C/CC/C(C)=C/CC[C@]1(C)CCc2c3c(c(C)c(C)c2O1)OCN(CCCO)C3
Measure Name: IC50
Endpoint Value: 8.1 µM

## Task Read off the recorded IC50 for CC(C)=CCC/C(C)=C/CC/C(C)=C/CC[C@]1(C)CCc2c3c(cc(C)c2O1)OCN(CCc1ccc(O)cc1)C3
## Result 2.4 µM

## Task Answer with reported IC50 of CC(C)=CCC/C(C)=C/CC/C(C)=C/CC[C@]1(C)CCc2c3c(c(C)c(C)c2O1)OCN(CCCCO)C3
## Result 10.7 µM

====

tested on: MDA-MB-231 human breast cancer cells; assay: Wound-healing assay (cell migration); format: cell-based; details: Homo sapiens; MDA-MB-231, wound-healing assay, dose response; read-out: IC50 antimigratory activity
Measure Name: pIC50
Field pIC50 (float): negative decimal logarithm of the concentration in molar.

Compound Smiles: CC(C)=CCC/C(C)=C/CC/C(C)=C/CC[C@]1(C)CCc2c3c(c(C)c(C)c2O1)OCN(CCc1ccc(O)cc1)C3
Endpoint Value: 5.35
--
Compound Smiles: CC(C)=CCC/C(C)=C/CC/C(C)=C/CC[C@]1(C)CCc2c3c(cc(C)c2O1)OCN(CCCO)C3
Endpoint Value: 5.22
--
Compound Smiles: CC(C)=CCC/C(C)=C/CC/C(C)=C/CC[C@]1(C)CCc2c3c(cc(C)c2O1)OCN(CCCCO)C3
Endpoint Value: 5.66

Could you now consider this next molecule?
## Task Report pIC50 for CC(C)=CCC/C(C)=C/CC/C(C)=C/CC[C@]1(C)CCc2c3c(c(C)c(C)c2O1)OCN(CCCCCCCCO)C3
## Result 5.33

====

Entries and their inhibition at 5 µM values follow.
test system: MDA-MB-231 human breast cancer cells; experiment: Wound-healing assay (cell migration); type: cell-based; settings: Homo sapiens, MDA-MB-231; 5 μM dose, 24 h, wound-healing assay

Compound Smiles: CC(C)=CCC/C(C)=C/CC/C(C)=C/CC[C@]1(C)CCc2c3c(c(C)c(C)c2O1)OCN(CCc1ccc(O)cc1)C3
inhibition at 5 µM: > 50%

Compound Smiles: CC(C)=CCC/C(C)=C/CC/C(C)=C/CC[C@]1(C)CCc2c3c(c(C)c(C)c2O1)OCN(Cc1ccccc1)C3
inhibition at 5 µM: > 50%

## Task Give inhibition at 5 µM for the following compound: CC(C)=CCC/C(C)=C/CC/C(C)=C/CC[C@]1(C)CCc2c3c(cc(C)c2O1)OCN(Cc1cccc([N+](=O)[O-])c1)C3
## Result > 50%

====

test system: MCF7 human breast cancer cell line; assay: MTT assay of MCF7 cells; format: cell-based; conditions: media containing 1% fetal bovine serum
Measure Name: IC50 (µM)
Response body: numeric value in µM, unit text excluded.

## Task Identify IC50 associated with the compound CC(C)=CCC/C(C)=C/CC/C(C)=C/CC[C@]1(C)CCc2cc(O)c(C)c(C)c2O1 [Compound 1, γ-tocotrienol, reference compound]
## Result 7.1

====

Test system: MDA-MB-231 human breast cancer cell line
Test: MTT assay of MDA-MB-231 cells
Format: cell-based
Details: Homo sapiens, media containing 5% fetal bovine serum
Experimental: MDA-MB-231 and MCF7 cells were plated at a density of 8×10^3 cells/well and 10^4 cells/well in 96-well culture plates, respectively. The compounds were fed in serum free media containing 5% and 1% fetal bovine serum for MDA-MB-231 and MCF7 cells, respectively.
Catalogue of log10 of IC50 values
The common logarithm of IC50 in µM is what is listed.

Use these answered entries as a reference point.
Compound Smiles: CC(C)=CCC/C(C)=C/CC/C(C)=C/CC[C@]1(C)CCc2c3c(cc(C)c2O1)OCN(CCCCCCCCCCO)C3
log10 of IC50: 1.09

Compound Smiles: CC(C)=CCC/C(C)=C/CC/C(C)=C/CC[C@]1(C)CCc2c3c(c(C)c(C)c2O1)OCN(Cc1ccccc1)C3
log10 of IC50: 1.44

## Task Determine its reported log10 of IC50: CC(C)=CCC/C(C)=C/CC/C(C)=C/CC[C@]1(C)CCc2c3c(c(C)c(C)c2O1)OCN(CC1CCNCC1)C3
## Result -0.10

## Task Retrieve log10 of IC50 measured for CC(C)=CCC/C(C)=C/CC/C(C)=C/CC[C@]1(C)CCc2c3c(c(C)c(C)c2O1)OCN(CCCO)C3 and print it.
## Result 0.98

## Task Entry CC(C)=CCC/C(C)=C/CC/C(C)=C/CC[C@]1(C)CCc2c3c(cc(C)c2O1)OCN(CCCCCCCCO)C3 needs its log10 of IC50 filled in; supply it.
## Result 1.07

## Task Supply reported log10 of IC50 belonging to this compound: CC(C)=CCC/C(C)=C/CC/C(C)=C/CC[C@]1(C)CCc2c3c(c(C)c(C)c2O1)OCN(CCCCO)C3
## Result 1.14

## Task Find the measured log10 of IC50 of CC(C)=CCC/C(C)=C/CC/C(C)=C/CC[C@]1(C)CCc2c3c(cc(C)c2O1)OCN(CCCCCO)C3 and report it.
## Result 0.95

====

tested on: +SA mammary epithelial cells; test: MTT assay of +SA cells (antiproliferative activity); type: cell-based, mouse; details: Mus musculus, +SA cell, 24 hours treatment, read-out: IC50 antiproliferative activity against +SA mammary epithelial cells
pIC50: −log10 of the molar value.
Measure Name: pIC50

Recorded pIC50, per entry:
Compound Smiles: CC(C)=CCC/C(C)=C/CC/C(C)=C/CC[C@]1(C)CCc2c3c(c(C)c(C)c2O1)OCN(C)C3
System: +SA mammary epithelial cells
pIC50: 5.66 to 5.92

Compound Smiles: CC(C)=CCC/C(C)=C/CC/C(C)=C/CC[C@]1(C)CCc2c(CNCCc3ccc(O)cc3)c(O)c(C)c(C)c2O1
System: +SA mammary epithelial cells
pIC50: 6.33

Compound Smiles: CC(C)=CCC/C(C)=C/CC/C(C)=C/CC[C@]1(C)CCc2c3c(cc(C)c2O1)OCN(C)C3
System: +SA mammary epithelial cells
pIC50: 5.66 to 5.92

Compound Smiles: COc1ccc(CCNCc2c(O)c(C)c(C)c3c2CC[C@@](C)(CC/C=C(\C)CC/C=C(\C)CCC=C(C)C)O3)cc1OC
System: +SA mammary epithelial cells
pIC50: 5.50

Compound Smiles: CC(C)=CCC/C(C)=C/CC/C(C)=C/CC[C@]1(C)CCc2c(CO)c(O)c(C)c(C)c2O1
System: +SA mammary epithelial cells
pIC50: 5.59

Compound Smiles: CC(C)=CCC/C(C)=C/CC/C(C)=C/CC[C@]1(C)CCc2c(CO)c(O)cc(C)c2O1
System: +SA mammary epithelial cells
pIC50: ≤ 5.18

Compound Smiles: CC(C)=CCC/C(C)=C/CC/C(C)=C/CC[C@]1(C)CCc2c3c(c(C)c(C)c2O1)OCN(Cc1ccccc1)C3
System: +SA mammary epithelial cells
pIC50: 5.66 to 5.92

Could you now look at the following molecule, please?
## Task Provide the reported pIC50 (system: +SA mammary epithelial cells) for CC(C)=CCC/C(C)=C/CC/C(C)=C/CC[C@]1(C)CCc2cc(O)c(CO)c(C)c2O1
## Result ≤ 5.18

====

tested on: MCF7 human breast cancer cell line; experiment: MTT assay of MCF7 cells; format: cell-based; details: Homo sapiens, media containing 1% fetal bovine serum
Could you please mark Y for values of IC50 below 10 µM and N for values at or above it?

# example entries with known answers
Compound: CC(C)=CCC/C(C)=C/CC/C(C)=C/CC[C@]1(C)CCc2c3c(c(C)c(C)c2O1)OCN(CCCCCCCCCCO)C3 [Compound 41]
Assigned Label: N
--
Compound: CC(C)=CCC/C(C)=C/CC/C(C)=C/CC[C@]1(C)CCc2c3c(cc(C)c2O1)OCN(CCO)C3 [Compound 10]
Assigned Label: Y
--
Compound: CC(C)=CCC/C(C)=C/CC/C(C)=C/CC[C@]1(C)CCc2c3c(c(C)c(C)c2O1)OCN(CCCCCCO)C3 [Compound 37]
Assigned Label: N

## Task A record lists COc1ccc(CCN2COc3c(C)c(C)c4c(c3C2)CC[C@@](C)(CC/C=C(\C)CC/C=C(\C)CCC=C(C)C)O4)cc1OC [Compound 23] . Is its IC50 below 10 µM?
## Result N

## Task Could you please tell me whether IC50 recorded for CC(C)=CCC/C(C)=C/CC/C(C)=C/CC[C@]1(C)CCc2c3c(c(C)c(C)c2O1)OCN(CCCCCO)C3 [Compound 17] is less than 10 µM?
## Result N

## Task Check if IC50 falls below 10 µM for CC(C)=CCC/C(C)=C/CC/C(C)=C/CC[C@]1(C)CCc2c3c(cc(C)c2O1)OCN(CCCCCCCCCCO)C3 [Compound 42] .
## Result Y

## Task Is IC50 of CC(C)=CCC/C(C)=C/CC/C(C)=C/CC[C@]1(C)CCc2c3c(cc(C)c2O1)OCN(CCCCCO)C3 [Compound 18] strictly below 10 µM?
## Result Y

## Task # check: IC50 < 10 µM for CC(C)=CCC/C(C)=C/CC/C(C)=C/CC[C@]1(C)CCc2c3c(c(C)c(C)c2O1)OCN(CCc1ccc(O)cc1)C3 [Compound 26]
## Result N

## Task Given CC(C)=CCC/C(C)=C/CC/C(C)=C/CC[C@]1(C)CCc2c3c(c(C)c(C)c2O1)OCN(CCCO)C3 [Compound 12] , is recorded IC50 strictly lower than 10 µM?
## Result N

## Task Dear colleague, could you confirm whether IC50 of CC(C)=CCC/C(C)=C/CC/C(C)=C/CC[C@]1(C)CCc2c3c(cc(C)c2O1)OCN(CCc1ccc(O)cc1)C3 [Compound 27] falls below 10 µM? Thanks.
## Result N

## Task Does CC(C)=CCC/C(C)=C/CC/C(C)=C/CC[C@]1(C)CCc2c3c(cc(C)c2O1)OCN(CCCCCCO)C3 [Compound 38] have IC50 strictly under 10 µM?
## Result N

## Task Answer whether the compound CC(C)=CCC/C(C)=C/CC/C(C)=C/CC[C@]1(C)CCc2c3c(cc(C)c2O1)OCN(CCCO)C3 [Compound 13] has IC50 strictly less than 10 µM
## Result N

## Task Item CC(C)=CCC/C(C)=C/CC/C(C)=C/CC[C@]1(C)CCc2c3c(c(C)c(C)c2O1)OCN(CC1CCNCC1)C3 [Compound 16] : IC50 beneath 10 µM, strictly?
## Result N

## Task Hello, I'm reviewing records and need to know if IC50 of CC(C)=CCC/C(C)=C/CC/C(C)=C/CC[C@]1(C)CCc2c3c(c(C)c(C)c2O1)OCN(CCCCCCCCO)C3 [Compound 39] is below 10 µM. Could you check?
## Result N
